# Test Target: Fyn (UniProt P06241)
# Sequence (P06241 whole entry, looked up): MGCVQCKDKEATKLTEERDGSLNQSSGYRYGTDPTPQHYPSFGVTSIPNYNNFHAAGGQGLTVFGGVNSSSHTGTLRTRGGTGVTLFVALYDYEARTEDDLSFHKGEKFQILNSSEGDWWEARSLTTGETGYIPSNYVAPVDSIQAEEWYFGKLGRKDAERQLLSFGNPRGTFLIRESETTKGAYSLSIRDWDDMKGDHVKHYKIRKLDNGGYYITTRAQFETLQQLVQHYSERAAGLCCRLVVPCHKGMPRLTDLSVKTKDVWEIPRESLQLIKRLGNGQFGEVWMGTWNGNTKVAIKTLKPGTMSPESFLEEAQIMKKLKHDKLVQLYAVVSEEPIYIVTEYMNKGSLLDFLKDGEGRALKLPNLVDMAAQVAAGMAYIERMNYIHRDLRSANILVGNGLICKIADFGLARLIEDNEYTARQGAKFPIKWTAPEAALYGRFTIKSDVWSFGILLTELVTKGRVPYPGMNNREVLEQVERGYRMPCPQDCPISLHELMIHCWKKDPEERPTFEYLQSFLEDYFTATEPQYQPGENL
# Method Summary: phosphorylation enrichment, bacterial display (enrichment ratio); higher = better substrate or ligand; peptides without Tyr show the background;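 also: 11-residue human phosphosite peptides and single-mutation variants displayed on the E. coli surface, counted by deep sequencing, each peptide's frequency after selection divided by its frequency in the unselected input library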;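 also: frequency after pTyr selection over input frequency; kinase dosed for 20-30% of maximal phosphorylation in three min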
Please mark Met if the recorded phosphorylation enrichment is equal to or greater than 0.9, and Not met if it falls below.

Completed entries (count: 5):
Exercise: For this sequence, is measured phosphorylation enrichment 0.9 or higher? ESLRRYLENGK [HLA-B_Y195_W191S]
Key: Not met

Exercise: Try this sequence too: PYGQWYESHYA [RPS8_Y113_R110G]
Key: Met

Exercise: Try this sequence too: RWGQKHMTAVV [CYBA_Y72_Y72H]
Key: Not met

Exercise: Try this sequence too: FPPDGYSRHFE [CTNND1_Y213_YF]
Key: Not met

Exercise: Try this sequence too: IPTPAYQSLPA [PDCD6IP_Y727_S730L]
Key: Not met

Let's switch to this sequence now.
Exercise: For this sequence, is measured phosphorylation enrichment 0.9 or higher? CTTILYNFMCN [TP53_Y234_H233L_YF]
Key: Met

---

# Test Target: Fyn (UniProt P06241)
# Method Summary: phosphorylation enrichment, bacterial display (enrichment ratio); higher = better substrate or ligand; peptides without Tyr show the background
Measured Property: phosphorylation enrichment

Exercise: Quick one: phosphorylation enrichment of ELTAKYLNYYQ [P3H4_Y181] ?
Key: 0.407

Exercise: Try this sequence too: PFWKLYESVKK [MKI67_Y241]
Key: 1.03

Exercise: Try this sequence too: RSSNTYTLTDV [ALCAM_Y298]
Key: 1.6

Continuing:
Exercise: Quick one: phosphorylation enrichment of LARDMYDKEYY [MET_Y1230] ?
Key: 0.624

Exercise: Try this sequence too: FETNVYVDKNL [PTCHD3_Y688_K685T]
Key: 0.54

Exercise: Try this sequence too: LGGAMYYLEAE [PKHD1_Y452]
Key: 2.54

Exercise: Try this sequence too: VGTKRYMAPKV [ACVRL1_Y375_E379K]
Key: 0.301

Exercise: Try this sequence too: DTVRIYDDDFF [UBA1_Y560_E557V]
Key: 0.555

Exercise: Try this sequence too: FRRITYFNWRH [PDE6B_Y556_H557Y_YF]
Key: 0.607

---

# Test Target: Fes (UniProt P07332)
# Sequence (P07332 whole entry, looked up): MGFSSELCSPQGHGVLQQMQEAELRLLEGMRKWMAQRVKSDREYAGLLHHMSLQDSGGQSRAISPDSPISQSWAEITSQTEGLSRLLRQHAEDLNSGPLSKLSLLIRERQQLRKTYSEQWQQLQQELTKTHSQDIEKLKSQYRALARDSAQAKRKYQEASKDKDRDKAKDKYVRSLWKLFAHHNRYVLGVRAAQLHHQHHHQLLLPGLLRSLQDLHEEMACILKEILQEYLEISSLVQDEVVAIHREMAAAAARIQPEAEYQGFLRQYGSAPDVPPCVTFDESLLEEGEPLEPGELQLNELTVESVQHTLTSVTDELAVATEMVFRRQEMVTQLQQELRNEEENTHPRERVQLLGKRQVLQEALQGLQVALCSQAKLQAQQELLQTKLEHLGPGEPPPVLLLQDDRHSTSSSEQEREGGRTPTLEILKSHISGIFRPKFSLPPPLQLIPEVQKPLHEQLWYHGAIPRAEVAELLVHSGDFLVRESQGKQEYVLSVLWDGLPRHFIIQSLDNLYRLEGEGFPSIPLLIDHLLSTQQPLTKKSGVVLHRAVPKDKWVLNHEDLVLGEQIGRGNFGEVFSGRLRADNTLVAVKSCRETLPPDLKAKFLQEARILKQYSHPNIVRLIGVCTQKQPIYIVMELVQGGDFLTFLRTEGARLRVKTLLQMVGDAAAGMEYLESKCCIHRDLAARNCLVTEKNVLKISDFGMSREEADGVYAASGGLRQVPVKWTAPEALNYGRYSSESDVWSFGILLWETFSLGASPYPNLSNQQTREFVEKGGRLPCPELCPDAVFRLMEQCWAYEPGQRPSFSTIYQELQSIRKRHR
# Method Summary: phosphorylation enrichment, bacterial display (enrichment ratio); higher = better substrate or ligand; peptides without Tyr show the background
Measured phosphorylation enrichment of individual entries
Reply: number alone, nothing else.

Exercise: Quick one: phosphorylation enrichment of SPLTDYSPQLQ [OTC_Y345_L341P] ?
Key: 0.67

Continuing:
Exercise: Quick one: phosphorylation enrichment of FEDALYTVLHR [UNC13D_Y61_YF] ?
Key: 1.79

Exercise: Try this sequence too: FPPDGYSRHCE [CTNND1_Y213_Y217C_YF]
Key: 0.904

Exercise: Try this sequence too: IQSAKYDMAED [TTC21B_Y1213]
Key: 1.21

Exercise: Try this sequence too: LKTNWYNNGKD [DNMT3B_Y404_C403W]
Key: 1.44

Exercise: Try this sequence too: CNPLRYPVLMS [OR2T1_Y182]
Key: 0.913

Exercise: Try this sequence too: RLGLQYSQGLV [EIF2B4_Y214]
Key: 1.31

Exercise: Try this sequence too: GEDDVYDSVPG [FGR_opt_2018]
Key: 1.2

Exercise: Try this sequence too: PIAPVYAPSMV [ACAT1_Y331_A333P]
Key: 1.67

Exercise: Try this sequence too: `IKETHYMVDKC`
Key: 0.944

Exercise: Try this sequence too: WYQTKYEELQV [KRT6B_Y360_I365V]
Key: 1.28

Exercise: Try this sequence too: FGAHNHHPLPV [OAT_Y55_Y55H_YF]
Key: 0.636

Exercise: Try this sequence too: IRTIDYRFTVS [IDS_Y497_W502S_YF]
Key: 1.05

Exercise: Try this sequence too: VSSPKYGGDDE [TMCC2_Y473_S475G]
Key: 0.903

Exercise: Try this sequence too: YETSHYLASPD [CTNND2_Y1217_P1218L]
Key: 0.961

Exercise: Try this sequence too: TFSPPYYHRNC [HGD_Y333_R330S]
Key: 0.813

Exercise: Try this sequence too: PSDPSYEDMRE [BMPR1A_Y467]
Key: 1.59

Exercise: Try this sequence too: IYHLSYLHNCE [PDE6B_Y227]
Key: 1.54

Exercise: Try this sequence too: GGSDRYGSLRP [MYLK_Y846]
Key: 0.61

Exercise: Try this sequence too: LPKDLYLISQM [LARP4_Y141_S137P]
Key: 2.13

Exercise: Try this sequence too: EVKEAYMGSVL [ACAT1_Y90_N93S]
Key: 0.995

Exercise: Try this sequence too: LTSVKYLLSAT [GSDMC_Y26_P23S]
Key: 0.635

Exercise: Try this sequence too: HFVDEYDRTIE [KRAS_Y32_P34R]
Key: 1.66

Exercise: Try this sequence too: EIIPFYGMSSF [FNDC3B_Y175_T179S_YF]
Key: 0.995
